assay: chemical genetic growth profiling, strain panel (AID 1159580);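 also: tested at 20 µM; growth read once vehicle control cultures reached saturation at 30 °C; 1 = growth at the plate median or of vehicle wells; lower values mean less growth of the strain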; details: S. cerevisiae deletion strains, growth OD, locus YML032C, strain rad52
The whole screen tested about 5,500 compounds, of which about 2,000 (36%) were called active. Roughly 18% stayed inconclusive and do not appear here. Rule as the data show it: active = normalized growth mostly below about 0.91 (no sharp cut-off); inconclusive = no clear call, values can overlap the other calls; inactive = mostly above about 0.92. This is one part of the list.
// classify into active, inactive

Here's what some known entries look like.
[[record]]
molecule = "CC(C)(Oc1ccc(CCNC(=O)c2ccc(Cl)cc2)cc1)C(=O)O"
assigned_label = "inactive"

[[record]]
molecule = "Cc1cn([C@H]2C[C@H](N=[N+]=[N-])[C@@H](CO)O2)c(=O)[nH]c1=O"
assigned_label = "inactive"

[[record]]
molecule = "Nc1ccc(S(=O)(=O)c2ccc(N)cc2)cc1"
assigned_label = "inactive"


Query: recorded result category for `Nc1ccc(S(=O)(=O)Nc2cnc3ccccc3n2)cc1` in this test
Response: inactive

Query: How was `COc1cc(C(=O)O[C@H]2CC[C@@]3(C)[C@@H]4CC[C@H]5[C@]6(O)C[C@H](O)[C@@]7(O)[C@@H](CN8C[C@@H](C)CC[C@H]8[C@@]7(C)O)[C@]6(O)C[C@@]53O[C@]24O)cc(OC)c1OC` classified in this test?
Response: inactive

Query: What outcome does the record of this test show for `CC(=O)NCc1c(I)c(NC(C)=O)c(I)c(C(=O)O)c1I` ?
Response: inactive

----------
experiment: chemical genetic growth profiling, strain panel (AID 1159580);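 also: tested at 20 µM; growth read once vehicle control cultures reached saturation at 30 °C; 1 = growth at the plate median or of vehicle wells; lower values mean less growth of the strain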; details: S. cerevisiae deletion strains, growth OD, locus YLR039C, strain RIC1
About 2,000 (36%) of roughly 5,500 compounds were called active. Another 18% or so got no clear call; they are omitted. Rule as the data show it: active = normalized growth mostly below about 0.91 (no sharp cut-off); inconclusive = no clear call, values can overlap the other calls; inactive = mostly above about 0.92. The list shows a part of the results.
Outcome (select one): active, inactive

Query: Test call, this molecule: `O=C(O)CSCC(=O)NC1CCN(Cc2ccccc2)CC1`
Response: inactive

Query: Could you please tell me the result logged for CCOC(=O)OC(C)OC(=O)C1N2C(=O)C(NC(=O)[C@H](N)c3ccccc3)C2SC1(C)C (some centres not stated) in this assay?
Response: inactive

Query: Recorded test outcome, item `O=C(O/N=C\c1ccc2c(c1)OCO2)c1ccccc1Br`
Response: active

Query: Could you please tell me the result logged for `Nc1c2c(nc3ccccc13)CCCC2` in this assay?
Response: inactive

Query: Hey, what did the test say about NC(Cc1c[nH]c2ccccc12)C(=O)O (configuration not stated) ?
Response: inactive

Query: Call for entry Nc1c2c(nc3ccccc13)CCCC2O (configuration not stated) :
Response: inactive

Query: Any idea what this test logged for CC1=CCC2C3(C)C1=CC(=O)OC3CC1C(C)(C)CC(O)C(O)C12C (configuration not stated) ?
Response: inactive

----------
Entries annotated with measured normalized growth
test: chemical genetic growth profiling, strain panel (AID 1159580);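 also: tested at 20 µM; growth read once vehicle control cultures reached saturation at 30 °C; 1 = growth at the plate median or of vehicle wells; lower values mean less growth of the strain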; conditions: S. cerevisiae deletion strains, growth OD, locus YGR092W, strain DBF2, hits give low values
About 2,000 (36%) of roughly 5,500 compounds were called active. Inconclusive results (about 18%) are left out. The list shows a part of the results.
Keep the answer to the number alone.

[[record]]
compound = "Cc1oc(C(C)(C)C)cc1-c1cc(N)n(-c2ccc(I)cc2)n1"
property_label = "normalized growth"
meas_value = 0.882


`Cc1nc(-c2ccccn2)[nH]c(=O)c1Cc1c(Cl)cccc1Cl` has a reported normalized growth of 0.762

// normalized growth lookup, compound = `O=[N+]([O-])c1ccc(S(=O)(=O)c2ccccc2)nc1S(=O)(=O)c1ccccc1` , result: 0.785

// sample O=C(NCC1COc2ccccc2O1)c1ccc(Cl)cc1 (configuration not stated) , its normalized growth was 0.753

Reported normalized growth of `Nc1ccc(Sc2ccccc2)nc1Sc1ccccc1` : 0.875

// `Brc1ccc2[nH]c3c(c2c1)CCC3` : normalized growth value = 0.621

Looking up `Fc1cccc(Cl)c1CSc1n[nH]c(-c2cc(C(F)(F)F)cc(C(F)(F)F)c2)n1` , I found its normalized growth recorded as 0.914
